These measurements were taken from the supplement of paper PMC10567573.

B1: P2RY14 (parent)
chain: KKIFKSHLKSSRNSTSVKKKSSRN

Variants of: B1
ASSAY_REMARKS: protein stability index of a GFP-peptide fusion (GPS, HEK-293T) (PSI 1-6); higher = more stable;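 note: lentivirally expressed fusions sorted by FACS into six bins by GFP to DsRed ratio, PSI derived from sequencing read proportions per bin multiplied by bin number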
MEASUREMENT_PARAMETERS: c terminus: a fixed tail appended
QUANTITY_NAME: protein stability index
// return just the number, without any unit appended

-- ask Item under review: R12C . Reported protein stability index?
-- reply 3.6

-- ask Item under review: K9A . Reported protein stability index?
-- reply 4.07

-- ask Item under review: S22F . Reported protein stability index?
-- reply 2.92

-- ask Item under review: S6L . Reported protein stability index?
-- reply 3.18

-- ask Item under review: K20I . Reported protein stability index?
-- reply 3.5

-- ask Item under review: L8P . Reported protein stability index?
-- reply 4.33

-- ask Item under review: S14R . Reported protein stability index?
-- reply 4.36

-- ask Item under review: K18Q . Reported protein stability index?
-- reply 3.67

-- ask Item under review: K1Q . Reported protein stability index?
-- reply 4.25

-- ask Item under review: R12I . Reported protein stability index?
-- reply 3.8

-- ask Item under review: K1C . Reported protein stability index?
-- reply 3.51
